Biological target: T1, recombinant soluble integrin αvβ3, P06756;P05106
T1 chain 1: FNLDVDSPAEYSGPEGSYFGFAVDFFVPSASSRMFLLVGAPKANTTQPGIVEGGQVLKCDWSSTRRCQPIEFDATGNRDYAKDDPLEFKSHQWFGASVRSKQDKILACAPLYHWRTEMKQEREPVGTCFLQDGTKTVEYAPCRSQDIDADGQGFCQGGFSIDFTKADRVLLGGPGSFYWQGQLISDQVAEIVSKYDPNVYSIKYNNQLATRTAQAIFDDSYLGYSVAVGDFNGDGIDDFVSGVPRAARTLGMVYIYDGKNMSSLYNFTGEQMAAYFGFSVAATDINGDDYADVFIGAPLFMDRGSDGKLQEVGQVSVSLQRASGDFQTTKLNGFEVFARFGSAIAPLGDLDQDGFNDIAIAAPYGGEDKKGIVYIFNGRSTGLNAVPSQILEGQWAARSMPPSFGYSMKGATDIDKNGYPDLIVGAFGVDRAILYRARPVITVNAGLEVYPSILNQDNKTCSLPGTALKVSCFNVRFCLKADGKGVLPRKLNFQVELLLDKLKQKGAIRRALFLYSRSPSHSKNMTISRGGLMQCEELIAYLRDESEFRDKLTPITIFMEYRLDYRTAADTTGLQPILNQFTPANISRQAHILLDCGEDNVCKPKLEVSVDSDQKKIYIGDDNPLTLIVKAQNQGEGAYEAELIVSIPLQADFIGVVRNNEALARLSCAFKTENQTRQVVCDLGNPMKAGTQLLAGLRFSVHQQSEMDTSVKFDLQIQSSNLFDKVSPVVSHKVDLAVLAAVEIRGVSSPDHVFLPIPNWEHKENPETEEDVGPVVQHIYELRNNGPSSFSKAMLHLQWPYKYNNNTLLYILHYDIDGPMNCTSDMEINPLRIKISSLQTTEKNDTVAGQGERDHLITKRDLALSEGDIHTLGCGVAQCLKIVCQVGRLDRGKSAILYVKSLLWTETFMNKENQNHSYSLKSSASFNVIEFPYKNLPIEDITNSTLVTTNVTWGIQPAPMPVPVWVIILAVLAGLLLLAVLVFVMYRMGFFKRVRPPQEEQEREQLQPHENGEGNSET
T1 chain 2: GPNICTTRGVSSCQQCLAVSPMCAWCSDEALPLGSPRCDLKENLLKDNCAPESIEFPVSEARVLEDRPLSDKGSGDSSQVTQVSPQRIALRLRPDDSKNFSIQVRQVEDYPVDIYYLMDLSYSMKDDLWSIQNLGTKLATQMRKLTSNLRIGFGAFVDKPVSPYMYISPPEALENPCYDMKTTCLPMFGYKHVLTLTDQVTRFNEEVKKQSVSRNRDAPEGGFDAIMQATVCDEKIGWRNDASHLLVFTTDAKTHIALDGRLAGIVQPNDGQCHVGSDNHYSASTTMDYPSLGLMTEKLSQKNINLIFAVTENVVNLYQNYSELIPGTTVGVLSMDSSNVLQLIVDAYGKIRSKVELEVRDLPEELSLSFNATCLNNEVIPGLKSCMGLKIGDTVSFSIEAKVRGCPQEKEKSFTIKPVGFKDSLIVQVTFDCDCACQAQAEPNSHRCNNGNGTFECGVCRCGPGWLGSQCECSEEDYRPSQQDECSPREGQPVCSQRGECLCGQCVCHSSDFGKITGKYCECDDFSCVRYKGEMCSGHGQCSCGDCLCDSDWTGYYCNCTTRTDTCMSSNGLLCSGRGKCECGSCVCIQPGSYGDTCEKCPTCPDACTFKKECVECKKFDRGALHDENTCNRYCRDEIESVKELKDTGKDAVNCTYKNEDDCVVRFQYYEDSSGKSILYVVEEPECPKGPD
Assay: ELISA
Settings: chain shown with the change; immobilized CD40L mutants 10 μg/ml; soluble αvβ3 5 μg/ml in HEPES-Tyrodes buffer, 1 mM Mn2+; detection with anti-β3 (AV10); parent: est. 0.48; read off a plot
parameter.measured: response (OD450)
Number in OD450, nothing else.

[
  {
    "binder": "recombinant soluble CD40L (residues 118–261) with no N-terminal KGD motif, wild type S128R; E129G (protein) QNPQIAAHVIRGASSKTTSVLQWAEKGYYTMSNNLVTLENGKQLTVKRQGLYYIYAQVTFCSNREASSQAPFIASLCLKSPGRFERILLRAANTHSSAKPCGQQSIHLGGVFELQPGASVFVNVTDPSQVSHGTGFTSFGLLKL",
    "response, OD450": 0.046
  }
]

Quick check: response of recombinant soluble CD40L (residues 118–261) with no N-terminal KGD motif, wild type K143T (protein) QNPQIAAHVISEASSKTTSVLQWAETGYYTMSNNLVTLENGKQLTVKRQGLYYIYAQVTFCSNREASSQAPFIASLCLKSPGRFERILLRAANTHSSAKPCGQQSIHLGGVFELQPGASVFVNVTDPSQVSHGTGFTSFGLLKL ? 0.33

Next record, please: recombinant soluble CD40L (residues 118–261) with no N-terminal KGD motif, wild type L155P (protein) QNPQIAAHVISEASSKTTSVLQWAEKGYYTMSNNLVTPENGKQLTVKRQGLYYIYAQVTFCSNREASSQAPFIASLCLKSPGRFERILLRAANTHSSAKPCGQQSIHLGGVFELQPGASVFVNVTDPSQVSHGTGFTSFGLLKL 0.042

Next record, please: recombinant soluble CD40L (residues 118–261) with no N-terminal KGD motif, wild type G144E (protein) QNPQIAAHVISEASSKTTSVLQWAEKEYYTMSNNLVTLENGKQLTVKRQGLYYIYAQVTFCSNREASSQAPFIASLCLKSPGRFERILLRAANTHSSAKPCGQQSIHLGGVFELQPGASVFVNVTDPSQVSHGTGFTSFGLLKL 0.4
